pKi: −log10 of the molar value.
Collected set of pKi measured with 5-hydroxytryptamine receptor 2A (Homo sapiens, UniProt P28223) across studies.
// F strictly below 7 in pKi; T otherwise

• c1ccc(CCN2CCC(c3c(-c4ccccc4)[nH]c4ccccc34)CC2)cc1 = T
• COc1cccc(NC(=O)NCCCN2CCCC(Cc3ccccc3)C2)c1 (configuration not stated) = F
• O=S(=O)(c1cccc2cccnc12)N1CCC(CCc2ccc(F)cc2F)CC1 = T
• CN(C)CCSc1nc2ccccc2s1 = F
• c1ccc2c(c1)CC1CCNCCN21 (configuration not stated) = F
• Cc1ccccc1OCc1nc(N)nc(N2CCN(C)CC2)n1 = F
• Fc1ccc2[nH]c(-c3ccccc3)c([C@@H]3CNCC[C@H]3F)c2c1 = T
• CC(C)(CCCN1CCCC(c2ccccc2)C1)S(=O)(=O)c1ccccc1 (racemic) = F
• Clc1ccc(-c2noc3c2CCNCC3)cc1 = F
• O=C1NCc2ccc(OCCCN3CCN(c4cccc5c4CCC5)CC3)cc21 = T
• O=C1NCc2ccc(OCCCN3CCN(c4cccc5c4COCC5)CC3)cc21 = T
• Cn1ccc2cc3c(cc21)CCCN3C(=O)Nc1cccnc1 = F
• O=C(c1cnn2cc(Cl)ccc12)N1CCN(CCc2ccc(F)cc2F)CC1 = T
• COc1ccc2oc(C(=O)NCCC(F)CN3CCN(c4cccc(Cl)c4Cl)CC3)cc2c1 (configuration not stated) = F
• COc1cccc(-c2ccc(CNCCc3c[nH]c4ccc(OC)cc34)o2)c1 = F
• C[C@H]1CN(C(=O)c2ccc(-c3cccc(C(F)(F)F)c3)cc2)CCN1C(=O)c1ccc2cc[nH]c2c1 = F
• O=C1CCc2cccc(CCN3CCN(c4nsc5ccccc45)CC3)c2N1 = T
• Cc1ccccc1CNc1cc2c(cc1O)C(c1ccccc1)CN(C)CC2 (racemic) = F
• CC(=O)c1c(OCCCCN2CCN(c3cccc(F)c3)CC2)ccc2c(C)cc(=O)oc12 = F
